All values here come from patent US10104891B2.

Test system: Plasmopara viticola
Assay: Test 3: control effect against grape downy mildew
Type: in vivo
Details: control value vs untreated section
property-measured: control value (Test 3)
Please state the value as a number alone, without comment.

Here are 3 compounds together with their reported answers.
| compound | property-measured | meas-value |
| --- | --- | --- |
| N#Cc1cccc2c1COC(c1csc(C3CCN(C(=O)Cn4nc(C(F)F)cc4C(F)F)CC3)n1)OC2 (stereo not shown) | control value (Test 3) | 100 |
| COc1ccc(C)c2c1COC(c1csc(C3CCN(C(=O)Cc4cc(Cl)ccc4Cl)CC3)n1)OC2 (stereo not shown) | control value (Test 3) | 100 |
| O=C(Cn1nc(C(F)(F)F)cc1C(F)(F)F)N1CCC(c2nc(C3OCc4cccc(F)c4CO3)cs2)CC1 (stereo not shown) | control value (Test 3) | 100 |

Here is another compound to look at.
Reported control value (Test 3), compound Cc1cc2c(cc1C)COC(c1csc(C3CCN(C(=O)Cn4nc(C(F)(F)F)cc4C)CC3)n1)OC2 : ____
100

----------
Test system: Pseudoperonospora cubensis
Assay: Test 2: control effect against cucumber downy mildew
Format: in vivo
Conditions: Pseudoperonospora cubensis, 120 h, control value vs untreated section
Protocol: A 10% wettable powder created according to the Pharmaceutical Formulation Example 1 was diluted with a Tween20 solution prepared to a concentration of 1/5000, then the compound of formula [1] was prepared to a concentration of 4 ppm. Further, the compound of formula [1] in Test 4 was adjusted to a concentration of 1,000 ppm. <Test 2 Test of Control Effect Against Cucumber Downy Mildew> […]
Each record here notes measured pest or weed control at 4 µg/mL.

| molecule | pest or weed control at 4 µg/mL |
| --- | --- |
| Cc1ccc(C)c(CC(=O)N2CCC(c3nc(C4OCc5ccccc5C(C)O4)cs3)CC2)c1 (stereo not shown) | 100% |
| Cc1cc(C(F)(F)F)nn1CC(=O)N1CCC(c2nc(C3OCc4cccc(C=O)c4CO3)cs2)CC1 (stereo not shown) | 60% |
| CS(=O)(=O)Oc1ccc(Br)c2c1COC(c1csc(C3CCN(C(=O)Cn4nc(C(F)(F)F)cc4C(F)(F)F)CC3)n1)OC2 (stereo not shown) | 100% |

Reported pest or weed control at 4 µg/mL, molecule Cc1ccc(C)c(CC(=O)N2CCC(c3nc(C4OCc5cccc(OS(C)(=O)=O)c5CO4)cs3)CC2)c1 (stereo not shown) : ____
100%

----------
Each record here notes measured pest or weed control at 4 µg/mL.
Test system: Pseudoperonospora cubensis
Assay: Test 2: control effect against cucumber downy mildew
Assay type: in vivo
Conditions: Pseudoperonospora cubensis, 120 h, control value vs untreated section

| molecule | property-measured | meas-value |
| --- | --- | --- |
| COc1ccc(F)c2c1COC(c1csc(C3CCN(C(=O)Cc4cc(C)ccc4C)CC3)n1)OC2 (centres unmarked) [Compound 2-52] | pest or weed control at 4 µg/mL | 100% |

Reported pest or weed control at 4 µg/mL, molecule CC(C)(C)c1ccc2c(c1)COC(c1csc(C3CCN(C(=O)Cn4nc(C(F)F)cc4C(F)F)CC3)n1)OC2 (centres unmarked) [Compound 1-78] : ____
100%

Reported pest or weed control at 4 µg/mL, molecule O=C(Cn1nc(C(F)F)cc1C(F)F)N1CCC(c2nc(C3OCc4cccc(Br)c4CO3)cs2)CC1 (centres unmarked) [Compound 1-113] : ____
100%

Reported pest or weed control at 4 µg/mL, molecule COc1ccc(OS(C)(=O)=O)c2c1COC(c1csc(C3CCN(C(=O)Cn4nc(C(F)F)cc4C(F)F)CC3)n1)OC2 (centres unmarked) [Compound 1-39] : ____
100%

Reported pest or weed control at 4 µg/mL, molecule Cc1cc(C(F)(F)F)nn1CC(=O)N1CCC(c2nc(C3OCc4ccc(C(C)(C)C)cc4CO3)cs2)CC1 (centres unmarked) [Compound 1-79] : ____
90%
